Assay: soluble on expression in E. coli; label from the status in PepcDB or PDB records
MEASUREMENT_KIND: soluble on expression in E. coli

Below are worked cases with known answers.
| MONOMER_SEQUENCE | MEASUREMENT_KIND | RECORDED_RESULT |
| --- | --- | --- |
| MEVTVMPAAAPVQKQQGLNQIVINKVQKMIEGKQQGVMATITRLLEEGKIAQDFIAPIGVNLRNEDRHPVITFQAEEQVQMNMPEGNFNLHGNAISQISEKMGIPAKYLRELSAGDAWQKQLCATILNEHSGWTGRTRVLIRAVGTEIRGVLSDSYRRLNSVDILTAFIREAANNGAVVSDAYMNDTKVWCETILPTPVEIPTRKNGTVIIFAGARFSTSDFGNGSVDMRSFLLNGACLNGMVRESVMRQIHLGGRLPDTLALSQRTYELDTKTTVSAVKDLTKGLYSKNTIMQKAIEIQGASEIDVDFDKELKSLVQRGALLKNEGREVEKLLMNNNPDDGITGGATLWKLAQGITAFAREQEPERSRELHEISGQLMNRVKNN | soluble on expression in E. coli | not soluble |
| MATEGMILTNHDHQIRVGVLTVSDSCFRNLAEDRSGINLKDLVQDPSLLGGTISAYKIVPDEIEEIKETLIDWCDEKELNLILTTGGTGFAPRDVTPEATKEVIEREAPGMALAMLMGSLNVTPLGMLSRPVCGIRGKTLIINLPGSKKGSQECFQFILPALPHAIDLLRDAIVKVKEVHDRSHHHHHH | soluble on expression in E. coli | soluble |
| MGICVVIPAFNAALTIEAVVRETLEQGLPLVVVDDGSEDGTADCVRGLPVNLVSHGRNRGKGAALKTGFAWALEYGFSGVITLDSDGQHDPTAITLLAETAKNDGWDILVASRFAQFNQMAGLRRHWNRFGAWCMKKRTGFQIDDSQSGFRYYSARLLRMVSLGKDGYDLEMEILMKAWQAGCTIGSVPVPARVADGRATSHFRPVRDTWNICMTFLRYMLEHHHHHH | soluble on expression in E. coli | not soluble |
| MEKVQSISNGTNSISYTLTRSRRKTVGIRITENGEVKVAAPLNIPDRQLKDIILKKLPWILRKQEELRKICEESRLENKFADGETFLYLGKEYTLRIAKGVLPEGVNLEENYIVVAADETKVSVNGPQYIRNVLKNFYVNQFVDIAKTRMDFFSPKIGVCPRKLTVREQKTRWGSCSSKGNISLNWKLVMAPMEVIDYVIVHELCHMKEMNHSKNYWNIVKSIIPDFELRRKWLKDNGHRLLM | soluble on expression in E. coli | soluble |
| MSLEGEVEKTQAKGSIILATTTSTSDSGLLDYLLPEFTKDTGIEAKVVAVGTGQALQMGKDGEADVLLVHSKAAEEEFVAAGDGLERKDVMYNDFILVGPANDPLKLKQELPNDIVGALKKISEQKFKFISRGDDSGTHKKELALWTEVGITPEGDYYVSAGRGMGDVLKMADEMQAYTIADRGTYLSMKADLGLDIIVEKDTNLFNQYGVIPVNPDKNENINAEGAKAFEEWILSEKAQSLIGEYGKEKYGAPLFTPNAAKEGHHHHHH | soluble on expression in E. coli | soluble |
| MGHHHHHHSHMSDWEDDDFEPEVSTFKRAEPAPEPVKIVDAPPPPQKAAPAAPKTLKAAPTFAMESLGRELTSAEKEAIQKKNDLALARDLFGDDDSAEATDEAKTYANIMSKADFEYWGERVGGFLASRSKASCYGDMIGKLLTSVTDEMTPAEILKMVTFLQQISAAKKTAEKTKAKATTAAKPAAAANKKNAKATLKVTKGNDSMYDDYGDDQDDYDDY | soluble on expression in E. coli | soluble |

Qu. Value lookup for soluble on expression in E. coli; key = `MRIFPVFLLTFSLFLIKEEIVTAEVKVSAPVVNQSGIKLNLERQFTGSDVAINRIHFSPDGQFLLTAAADGVGTLWTKEGEMLGQLQGQKPPMFNARLSPDRQILITTGYDGTIRLWNLQGELLEEQQPHRAAVADAIFSPDSQIIVTCSDDGQTKIFTRQGQEIASVLKSGTARNLAYHPQGLLIASVSDSGSLHLINPNGKIEREISTGQGRINNVNFSPNGEQLLTSGINGSAKLWNLAGELIHEYKVVPTGWVNSAQFYPKGEWLATASDDGTIRFWQKDGQLIYELPLVNARLTSLSFSPDGKQLAATSSQGQVWVFNLSYLEHHHHHH`
Ans. not soluble

Qu. I have this sequence here, `GSHMASMTGGQQMGRGSMTQDEMKKAAGWAALKYVEKGSIVGVGTGSTVNHFIDALGTMSEEIKGAVSSSVASTEKLEALGIKIFDCNEVASLDIYVDGADEINADREMIKGGGAALTREKIVAAIADKFICIVDGTKAVDVLGTFPLPVEVIPMARSYVARQLVKLGGDPCYREGVITDNGNVILDVYGMKITNPKQLEDQINAIPGVVTVGLFAHRGADVVITGTPEGAKIEE` , and I need its recorded soluble on expression in E. coli.
Ans. soluble

Qu. Record request: soluble on expression in E. coli value, item `MRYLLSLSVFLIVSLNPAFAEWTGDNVEGMHSGMIINKFHSGQVDGKPYFCIEAFKPSTTITACSVKDTSIWGASYNTLYDQAMYYYTTGKRIRVYYAPDVWTNNSFVRALTANALVGFSTCISESSCFGPDRKKHKFTVH`
Ans. not soluble

Qu. Quick check: soluble on expression in E. coli of `MATNIGMMDSAYFVGRNEILTWINDRLHLNLSRVEEAASGAVQCQMLDMTFPGVVPMHKLVDLKISTDLLEKERDFYFSKLRDVEILCQTPELDDLPVNVSVEPIVVAVKKILYATDANESALEDAQEYLNQSLGVEDDEAEGNGEQLEEEKTQA` ?
Ans. soluble

Qu. Entry `MTTDQSKLEAINQALRAQRQLVRQLDDQQASLERQLQGLTGDSAGWAADTDPALGHVLEAFHALLGSLTESLSQGDAAQLLARCAAELLPDTTGAIFVDQAGVEPANRAIAAWRGAELLTDPNALHYECTEDQAAHRLNIEAQGLYLGVVELRPLSPGRALRAREQQTLQMLASAAGLALATHTLRYRLRHRNVRDPLTGLFNRRYAEDTLERELHRAQRHQLPLSVVLIDLDRFEAYNQRHGQNAGDRMLQAMSDLLQHSFRGSDICARAAGQRFLLVLPEAAIRDAIERANDLRRELAKVRVHLRGLHLPAMTVSMGVAGYPEHADSSDDLMAAADAALQLAKHSGGNTCALAEKVPLSPHNE` : reported soluble on expression in E. coli = ?
Ans. soluble
